A set of molecules tested on human HDAC3/SMRT heterodimer (Homo sapiens (Human)), with measured pIC50:
# log scale: pIC50 equals minus log10 of the concentration in mol/L

Please review the entries below; each comes with its answer.
N[C@@H](CCCCCC(=O)c1ncco1)c1nc(-c2ccc3nn(C4CC4)cc3c2)c[nH]1 [Example 14] :: 8.96
COc1cc2nc(C)ccc2cc1-c1cnc([C@H](CCCCCC(=O)c2ncco2)NC(=O)c2cc3n(n2)CCCO3)[nH]1 [Example 163] :: 9.28
COc1nc2ccccc2cc1-c1cnc([C@H](CCCCCC(=O)c2ncco2)NC(=O)[C@H]2CCC(=O)N2)[nH]1 [Example 156] :: 8.96
COc1cc2nc(C)ccc2cc1-c1cnc([C@H](CCCCCC(=O)c2ncco2)NC(=O)Cn2cccc2)[nH]1 [Example 162] :: 8.82
COc1cc2nc(C)ccc2cc1-c1cnc([C@H](CCCCCC(=O)c2ncco2)NC(=O)[C@H]2CC23CCN(C)CC3)o1 [Example 113] :: 9.24

Exam item: What does the record list as pIC50 for CS(=O)(=O)c1ccc(-c2cnc([C@@H](N)CCCCCC(=O)c3ncco3)[nH]2)c(F)c1 [Example 143] ?
Marked response: 8.10

Exam item: Try COc1cc2nc(C)ccc2cc1-c1cnc([C@H](CCCCCC(=O)c2ncco2)NC(=O)C2CCCO2)[nH]1 (stereo partly shown) [Example 169] next.
Marked response: 8.92

* * *

This document collects pIC50 values reported for human HDAC1 (Homo sapiens (Human)).
Reminder that pIC50 means the negative base-10 logarithm of the concentration expressed in mol/L.

CCN(CC)CC(=O)N[C@@H](CCCCCC(=O)c1ncco1)c1ncc(-c2cc3ccccc3nc2OC)[nH]1 :: 9.00
COc1cc2nc(C)ccc2cc1-c1cnc([C@H](CCCCCC(=O)c2ncco2)NC(=O)C2COC(c3ccccc3)CO2)[nH]1 (some centres unmarked) :: 7.70

Exam item: So what's the measured pIC50 for this one? "COc1cc2nc(C)ccc2cc1-c1cnc([C@H](CCCCCC(=O)c2ncco2)NC(=O)Cn2ccc(C)n2)[nH]1"
Marked response: 8.77

Exam item: Follow-up entry: NC(CCCCCC(=O)c1ccon1)c1cnn(-c2ccc(F)cc2)c1 (centres unmarked) [Example 122]
Marked response: 6.30

Exam item: Note, next up: "COc1cc2c(ccc(=O)n2C)cc1-c1cnc([C@H](CCCCCC(=O)c2ccon2)NC(=O)CN(C)C)[nH]1"
Marked response: 9.43

* * *

biological target: human HDAC3/SMRT heterodimer (Homo sapiens (Human))
IC50 by entry:
Answer format: numeric, nM implied, no suffix.

Exam item: Bench note: what IC50 did COc1cc2nc(C)ccc2cc1-c1cnc([C@H](CCCCCC(=O)c2ncco2)NC(=O)c2cc3n(n2)CCS(=O)(=O)C3)[nH]1 [Example 165] show?
Marked response: 0.46

* * *

System: human HDAC3/SMRT heterodimer (Homo sapiens (Human), UniProt O15379) | Read-out: IC50
Sequence (O15379 whole entry): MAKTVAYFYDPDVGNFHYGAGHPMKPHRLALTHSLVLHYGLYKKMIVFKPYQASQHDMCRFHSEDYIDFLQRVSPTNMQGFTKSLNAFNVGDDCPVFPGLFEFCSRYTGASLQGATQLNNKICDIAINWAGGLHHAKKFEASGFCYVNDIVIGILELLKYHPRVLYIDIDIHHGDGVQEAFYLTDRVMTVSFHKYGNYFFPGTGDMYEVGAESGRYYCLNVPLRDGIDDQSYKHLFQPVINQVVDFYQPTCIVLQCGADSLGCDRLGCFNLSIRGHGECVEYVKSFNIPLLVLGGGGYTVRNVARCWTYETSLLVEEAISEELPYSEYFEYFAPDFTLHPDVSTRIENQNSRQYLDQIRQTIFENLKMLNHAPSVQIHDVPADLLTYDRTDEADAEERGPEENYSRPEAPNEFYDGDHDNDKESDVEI
Sequence (Q9Y618 1-899 partner): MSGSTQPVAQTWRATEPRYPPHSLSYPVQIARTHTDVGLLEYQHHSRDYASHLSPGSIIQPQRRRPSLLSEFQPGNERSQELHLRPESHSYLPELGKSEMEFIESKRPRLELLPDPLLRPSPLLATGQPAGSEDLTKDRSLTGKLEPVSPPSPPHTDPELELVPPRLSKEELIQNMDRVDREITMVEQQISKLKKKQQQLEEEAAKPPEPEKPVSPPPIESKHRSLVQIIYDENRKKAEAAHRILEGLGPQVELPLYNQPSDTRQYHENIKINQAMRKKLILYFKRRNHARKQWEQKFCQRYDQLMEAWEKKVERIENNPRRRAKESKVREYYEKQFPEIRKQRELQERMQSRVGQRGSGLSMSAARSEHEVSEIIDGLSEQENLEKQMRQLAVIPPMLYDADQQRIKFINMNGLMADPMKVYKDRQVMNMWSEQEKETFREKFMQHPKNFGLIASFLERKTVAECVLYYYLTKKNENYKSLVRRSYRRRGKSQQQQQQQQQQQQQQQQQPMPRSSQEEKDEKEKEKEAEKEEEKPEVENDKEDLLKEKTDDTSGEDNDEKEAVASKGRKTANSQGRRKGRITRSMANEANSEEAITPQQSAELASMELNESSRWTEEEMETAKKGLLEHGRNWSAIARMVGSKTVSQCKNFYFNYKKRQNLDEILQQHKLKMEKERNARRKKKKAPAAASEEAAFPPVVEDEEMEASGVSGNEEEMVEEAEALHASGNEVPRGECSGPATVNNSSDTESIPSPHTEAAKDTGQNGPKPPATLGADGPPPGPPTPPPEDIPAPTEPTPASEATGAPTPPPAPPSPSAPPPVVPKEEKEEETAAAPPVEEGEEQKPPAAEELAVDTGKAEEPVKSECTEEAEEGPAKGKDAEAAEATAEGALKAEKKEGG
Number first, unit second.

CN(C)CC(=O)N[C@@H](CCCCCC(=O)c1ncco1)c1ncc(-c2ccc3c(ccc(=O)n3C)c2)[nH]1 :: 1.5 nM
COc1cc2nc(C)ccc2cc1-c1cnc([C@H](CCCCCC(=O)c2cc(C)on2)NC(=O)CN(C)C)[nH]1 :: 0.37 nM
COc1cc2nc(C)ccc2cc1-c1cnc([C@H](CCCCCC(=O)c2ncco2)NC2CCOCC2)[nH]1 :: 5.7 nM
N[C@@H](CCCCCC(=O)c1ncco1)c1ncc(-c2cnc(C3CC3)cn2)[nH]1 :: 9 nM

Okay, next one:
Exam item: Requested read-out: IC50. Entry: COc1cc2nc(C)ccc2cc1-c1cnc([C@H](CCCCCC(=O)c2cc(C)on2)NC(=O)C2CC23CCN(C)CC3)[nH]1 (some centres unmarked)
Marked response: 0.18 nM

* * *

target: human HDAC8 (Homo sapiens (Human), UniProt Q9BY41); assay: HDAC8 inhibition assay (modified FLUOR DE LYS, 384-well); type: biochemical; conditions: […] enzyme, 200 μM substrate BML-KI178, 3 h pre-incubation; read-out: HDAC8 IC50
Sequence (Q9BY41 whole entry): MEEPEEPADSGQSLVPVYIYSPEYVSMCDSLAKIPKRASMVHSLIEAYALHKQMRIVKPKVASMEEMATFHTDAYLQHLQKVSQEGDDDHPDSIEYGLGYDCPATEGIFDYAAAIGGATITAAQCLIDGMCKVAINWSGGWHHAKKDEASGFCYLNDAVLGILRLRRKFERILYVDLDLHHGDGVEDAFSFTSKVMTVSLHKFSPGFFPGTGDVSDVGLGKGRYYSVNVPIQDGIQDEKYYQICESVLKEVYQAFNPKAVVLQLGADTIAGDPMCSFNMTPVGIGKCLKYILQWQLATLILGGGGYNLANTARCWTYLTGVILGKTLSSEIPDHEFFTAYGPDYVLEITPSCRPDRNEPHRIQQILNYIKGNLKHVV
log10 of IC50 reference
Lab note - IC50 converted to log10 from values in nM.

Below, each entry is followed by its recorded log10 of IC50 result.
N[C@@H](CCCCCC(=O)c1ncco1)c1ncc(-c2ccc3nc(N4CCCC4)ccc3c2)[nH]1 :: 3.56
COc1cc2c(ccc(=O)n2C)cc1-c1cnc([C@@H](N)CCCCCC(=O)c2ncco2)[nH]1 :: 2.69
COc1cc2nc(C)ccc2cc1-c1cnc([C@H](CCCCCC(=O)c2ncco2)NC(=O)[C@H]2CC23CCN(C)CC3)o1 :: 2.26

Exam item: Using the record for "COc1cc2nc(C)ccc2cc1-c1cnc([C@H](CCCCCC(=O)c2ncco2)NC(=O)c2cc3n(n2)CCCO3)[nH]1" , report its log10 of IC50.
Marked response: 1.58

Exam item: "N[C@@H](CCCCCC(=O)c1ccon1)c1cc(-c2ccc(F)cc2)on1" , same question.
Marked response: 2.48

* * *

Consider compounds characterized by their log10 IC50 with HDAC6 (Homo sapiens (Human)).
Sequence (Q9UBN7 whole entry): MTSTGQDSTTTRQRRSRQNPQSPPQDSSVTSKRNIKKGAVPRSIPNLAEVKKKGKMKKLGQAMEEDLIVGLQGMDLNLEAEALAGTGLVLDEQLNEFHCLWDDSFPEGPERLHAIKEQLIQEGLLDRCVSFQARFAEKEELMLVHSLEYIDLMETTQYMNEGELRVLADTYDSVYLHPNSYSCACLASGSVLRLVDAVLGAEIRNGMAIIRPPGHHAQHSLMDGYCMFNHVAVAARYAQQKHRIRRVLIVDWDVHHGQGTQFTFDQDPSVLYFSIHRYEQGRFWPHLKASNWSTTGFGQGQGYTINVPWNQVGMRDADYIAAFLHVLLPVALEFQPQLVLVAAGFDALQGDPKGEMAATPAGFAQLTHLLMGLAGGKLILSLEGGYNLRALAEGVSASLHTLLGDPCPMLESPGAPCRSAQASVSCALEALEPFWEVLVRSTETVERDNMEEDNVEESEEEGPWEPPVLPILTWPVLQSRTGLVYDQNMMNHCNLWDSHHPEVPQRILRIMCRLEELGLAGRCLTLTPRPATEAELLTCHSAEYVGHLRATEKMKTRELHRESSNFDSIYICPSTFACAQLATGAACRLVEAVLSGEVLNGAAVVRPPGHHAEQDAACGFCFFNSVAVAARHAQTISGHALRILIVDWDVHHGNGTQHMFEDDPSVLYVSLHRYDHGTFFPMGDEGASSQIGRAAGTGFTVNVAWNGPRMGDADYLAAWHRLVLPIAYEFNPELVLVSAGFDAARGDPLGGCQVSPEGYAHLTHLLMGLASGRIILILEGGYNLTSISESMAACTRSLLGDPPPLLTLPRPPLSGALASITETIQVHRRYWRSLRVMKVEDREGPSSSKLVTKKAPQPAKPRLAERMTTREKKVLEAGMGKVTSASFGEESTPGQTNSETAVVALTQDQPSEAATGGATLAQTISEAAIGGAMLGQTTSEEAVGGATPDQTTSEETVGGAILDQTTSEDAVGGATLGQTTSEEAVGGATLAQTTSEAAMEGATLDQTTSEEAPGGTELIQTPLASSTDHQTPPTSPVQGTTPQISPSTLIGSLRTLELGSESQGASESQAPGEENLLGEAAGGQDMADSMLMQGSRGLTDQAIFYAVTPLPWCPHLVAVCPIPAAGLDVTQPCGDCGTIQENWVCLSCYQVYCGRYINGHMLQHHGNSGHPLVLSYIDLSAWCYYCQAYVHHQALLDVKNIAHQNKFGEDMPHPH
Hey, these are logged values: log10 of IC50, µM being the unit before logging.

Worked cases, log10 IC50 given:
N[C@@H](CCCCCC(=O)c1ncco1)c1ncc(-c2ccc(-c3cnccn3)cc2)[nH]1 :: 1.65
CCn1cc(-c2ccc3nc(C)ccc3c2)nc1[C@@H](N)CCCCCC(=O)c1ncco1 :: 1.59
Cc1ccc2cc(-c3cnc([C@@H](N)CCCCCC(=O)c4ncco4)[nH]3)c(Cl)cc2n1 :: 1.65
CN(C)CC(=O)N[C@@H](CCCCCC(=O)c1ccon1)c1nc(-c2ccccc2F)c[nH]1 :: 0.96
Cc1coc(C(=O)CCCCC[C@H](NC(=O)C2CCN(C)CC2)c2nc(-c3ccc(F)cc3)c[nH]2)n1 :: 1.18

Exam item: Which log10 IC50 value belongs to "COc1cc2c(ccc(=O)n2C)cc1-c1cnc([C@H](CCCCCC(=O)c2ccon2)NC(=O)CN(C)C)[nH]1" ?
Marked response: 0.65

Exam item: Please give the result for "CCN1CCC2(CC1)C[C@@H]2C(=O)N[C@@](C)(CCCCCC(=O)c1ccon1)c1ncc(-c2ccccc2F)[nH]1" too.
Marked response: 1.63

Exam item: "COc1nc2ccccc2cc1-c1c[nH]c([C@@H](N)CCCCCC(=O)c2ncco2)n1" ?
Marked response: 1.60

Exam item: Another compound: "CCn1ccc2cc(-c3cnc([C@H](CCCCCC(=O)c4ncco4)NC(=O)CN(C)C)[nH]3)c(OC)cc2c1=O"
Marked response: -0.04

Exam item: Also need "Cc1cc(C(=O)CCCCC[C@H](N)c2nc(-c3ccccc3F)c[nH]2)no1" , thanks.
Marked response: 1.65

Exam item: What do you get for "CN1CCC2(CC1)C[C@@H]2C(=O)N[C@@H](CCCCCC(=O)c1ccon1)c1nc(-c2ccccc2F)c[nH]1" ?
Marked response: 1.65

Exam item: Next compound up: "COc1nc2ccccc2cc1-c1cnc([C@H](CCCCCC(=O)c2ncco2)NC(=O)CCCN(C)C)[nH]1"
Marked response: -0.85

Exam item: Next entry: "CN(C)CC(=O)N[C@@H](CCCCCC(=O)c1ncco1)c1ncc(-c2ccc3c(ccc(=O)n3C)c2)[nH]1"
Marked response: 1.65

Exam item: Now consider "O=C(CCCCC[C@H](NC(=O)[C@H]1CC12CCOCC2)c1nc(-c2ccc(F)cc2)c[nH]1)c1ncco1" .
Marked response: 1.65

Exam item: Try the compound COc1nc2ccccc2cc1-c1cnc([C@H](CCCCCC(=O)c2ncco2)NC(=O)C2COCCO2)[nH]1 (some centres unmarked)
Marked response: 1.08

Exam item: Similarly, "Cc1ccc2cc(-c3c[nH]c([C@H](CCCCCC(=O)c4ccon4)NC(=O)C4CN(C)C4)n3)ccc2n1" ?
Marked response: 0.26

Exam item: # repeat for "CC(C)n1ccc2cc(-c3cnc([C@@H](N)CCCCCC(=O)c4ncco4)[nH]3)ccc2c1=O"
Marked response: 1.65

Exam item: Would you kindly repeat that for NC(CCCCCC(=O)c1ccon1)c1cnn(-c2ccc(F)cc2)c1 (centres unmarked) ?
Marked response: 1.65

Exam item: Also check "COc1cc2nc(C)ccc2cc1-c1cnc([C@H](CCCCCC(=O)c2cc(C)on2)NC(=O)C2CN(C)C2)[nH]1"
Marked response: 1.65

* * *

biological target: UniProt:Q92769; test: HDAC2 inhibition assay (modified FLUOR DE LYS, 384-well); format: biochemical; conditions: […] enzyme, 40 μM substrate BML-KI104, 3 h pre-incubation; read-out: HDAC2 IC50
Sequence (Q92769 whole entry): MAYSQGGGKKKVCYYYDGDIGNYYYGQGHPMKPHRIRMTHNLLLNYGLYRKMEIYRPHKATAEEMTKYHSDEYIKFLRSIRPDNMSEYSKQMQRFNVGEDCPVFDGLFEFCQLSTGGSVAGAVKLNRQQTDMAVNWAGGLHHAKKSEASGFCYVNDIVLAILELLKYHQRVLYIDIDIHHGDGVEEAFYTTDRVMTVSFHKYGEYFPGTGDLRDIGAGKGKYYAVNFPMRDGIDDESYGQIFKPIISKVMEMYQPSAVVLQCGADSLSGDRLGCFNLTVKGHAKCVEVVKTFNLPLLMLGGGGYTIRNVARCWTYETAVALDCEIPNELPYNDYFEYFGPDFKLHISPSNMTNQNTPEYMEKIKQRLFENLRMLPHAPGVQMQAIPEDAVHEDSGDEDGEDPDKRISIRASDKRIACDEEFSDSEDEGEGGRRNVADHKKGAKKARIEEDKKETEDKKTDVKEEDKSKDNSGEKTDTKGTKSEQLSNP
pIC50: −log10 of the molar value.
Could you label it met if measured pIC50 is 8 or higher, and not met otherwise?

Record excerpt, results attached:
COc1cc2nc(C)ccc2cc1-c1cnc([C@H](CCCCCC(=O)c2ncco2)NC(=O)c2cc3n(n2)CCCC3)[nH]1 :: not met
COc1nc(C2CC2)ccc1-c1c[nH]c([C@H](CCCCCC(=O)c2ncco2)NC(=O)[C@H]2CC23CCN(C)CC3)n1 :: met
COc1nc2ccccc2cc1-c1cnc([C@H](CCCCCC(=O)c2ncco2)NC(=O)[C@H]2CCC(=O)N2)[nH]1 :: met
COc1nc2ccccc2cc1-c1cnc([C@H](CCCCCC(=O)c2ncco2)NC(=O)CN2CCC2)[nH]1 :: met
COc1cc(O[C@H]2C[C@H](OC)C2)cc(-c2cnc([C@@H](N)CCCCCC(=O)c3ncco3)[nH]2)c1F :: not met
COc1cc2c(ccc(=O)n2C)cc1-c1cnc([C@H](CCCCCC(=O)c2ccon2)NC(=O)C2CN(C)C2)[nH]1 :: met
N[C@@H](CCCCCC(=O)c1ncco1)c1ncc(-c2cc(C(F)(F)F)ccc2F)[nH]1 :: not met
COc1nc2ccccc2cc1-c1cnc([C@H](CCCCCC(=O)c2ncco2)NC(=O)[C@@H]2CCC(=O)N2)[nH]1 :: met

Exam item: Tell me whether pIC50 is at least 8 here: "N[C@@H](CCCCCC(=O)c1ncco1)c1ncc(-c2cccc(F)c2F)[nH]1"
Marked response: not met
